# Target Desc: hexokinase (HK) from yeast
# Experiment Summary: Hexokinase inhibition, coupled optical assay
# Measurement Conditions: glucose substrate
pIC50: −log10 of the molar value.
Reported Endpoint: pIC50

[[record]]
molecule = "CC(=O)N[C@@H]1C(O)O[C@H](C[Se][Se]C[C@H]2OC(O)[C@@H](NC(C)=O)[C@@H](O)[C@@H]2O)[C@@H](O)[C@@H]1O (stereo partly shown) [Compound 14b]"
reported_result = "< 2.30"

